# System: HepaRG cells
# PROTOCOL_NOTES: Incubations with HepaRG cells, metabolite identification by LC-HRMS/MS
# Assay type: in vitro ADME, human
# REPORTED_CONDITIONS: 250 μM, 24 h
EXPERIMENTAL_ENDPOINT: Number of phase II metabolites detected, HepaRG [250 μM]

COC(=O)C(NC(=O)c1nn(CCCCF)c2ccccc12)C(C)(C)C (centres unmarked) :: 3
CCCC(NCC)C(=O)c1ccc2c(c1)OCO2 (centres unmarked) :: 6
CCCCC(C(=O)c1ccc(F)cc1)N1CCCC1 (stereo not drawn) [Metabolite 4F-PHP, 4-fluoro-alpha-pyrrolidinohexiophenone] :: 1
CCC(=O)n1cc2c3c(cccc31)C1=C[C@@H](C(=O)N(CC)CC)CN(C)[C@@H]1C2 [Metabolite 1P-LSD, 1-propionyl-d-lysergic acid diethylamide] :: 2

Prompt: For the compound COc1ccccc1CNC(C)Cc1ccc(OC)c(OC)c1 (centres unmarked) , what Number of phase II metabolites detected, HepaRG [250 μM] is on record?
Response: 7
